- SUBJECT_OF_TEST: T1, IL-1beta (UniProt P01584 117-269)
- T1 construct: also called IL-1β
- EXPERIMENT: Biacore
binders and their reported fold difference in affinity vs parental
Just the number in fold, nothing appended.

{"BINDER": "XPA23 Fab, heavy chain T58R (Fab, V domains shown) VH: EVQLLESGGGLVQPGGSLRLSCAASGFTFSKYFMFWVRQAPGKGLEWVSVISPSGGMRRYADSVKGRFTISRDNSKNTLYLQMNSLRAEDTAVYYCARVGYGGNSDYWGQGTLVTVSS VL: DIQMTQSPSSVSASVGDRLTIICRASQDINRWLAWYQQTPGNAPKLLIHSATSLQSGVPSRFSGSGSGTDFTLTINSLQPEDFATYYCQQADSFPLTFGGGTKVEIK", "fold difference in affinity vs parental / fold": 1.14}

We now examine a further binder.
Asked: Query (binder): XPA23 Fab, heavy chain F33K (Fab, V domains shown) VH: EVQLLESGGGLVQPGGSLRLSCAASGFTFSKYKMFWVRQAPGKGLEWVSVISPSGGMTRYADSVKGRFTISRDNSKNTLYLQMNSLRAEDTAVYYCARVGYGGNSDYWGQGTLVTVSS VL: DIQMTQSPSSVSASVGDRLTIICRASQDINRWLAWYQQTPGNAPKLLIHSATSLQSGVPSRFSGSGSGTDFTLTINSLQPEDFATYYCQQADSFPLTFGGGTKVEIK ; field requested: fold difference in affinity vs parental
Given back: 0.85

Hey, just so you know, these numbers are from patent US20110118131A1.
